Listing: pIC50 (REN) of selected molecules
target: RORγ (UniProt P51449); assay: RORγ Gal4 Reporter Gene Assay in 293T cells (firefly and renilla luciferase); assay type: cell-based, human; conditions: third value of the cell; Gal4 reporter gene assay in 293T cells, renilla normalised luciferase
Number only, please.

// solved cases for pIC50 (REN) follow
| molecule | experimentalValue |
| --- | --- |
| Cc1c(C(=O)NCC2(C(=O)O)CC2)cc(-c2cc(C(C)(C)C)c3c(c2)C2(CCO3)CC2)n1CC1CCCCC1 | 6.7 |
| Cc1c(S(=O)(=O)NC(C)(C)C)ccc(-c2cc(C(=O)NCC3(O)CCS(=O)(=O)CC3)c(C)n2CC2CCCCC2)c1Cl | 7.6 |
| Cc1c(C(=O)NCCC(=O)O)cc(-c2cc(C(C)(C)C)c3c(c2)C2(CCO3)CC2)n1CC1CCCCC1 | 6.9 |

Now for a further molecule.
The molecule identified as Cc1c(C(=O)NC[C@@H]2CCCO2)cc(-c2cc(C(C)(C)C)c3c(c2)C2(CCO3)CC2)n1CC1CCCCC1 registered its pIC50 (REN) at 6.5
